- Tested on: maximum electroshock seizure (MES) model
- procedure.text: Maximum electroshock seizure (MES) model test
- Type: in vivo, mice
- applied.conditions: Mus musculus, po, 1 h, 100 mg/kg oral, Slc: ddY male mice, 3 per group, electrical stimulation 1 hour after administration; inhibition of hind limb extension; read-out: MES (positive number/tested number) (converted)
Please go through the items and note down their responders at 100 mg/kg.
Your answer is read as %, so omit the unit and give the number.

Find the recorded responders at 100 mg/kg belonging to Cc1cc(Cl)cc(-c2ccccc2CC(N)=O)c1F [Example 81] and report it. 33.3

Find the recorded responders at 100 mg/kg belonging to NC(=O)Cc1ccc(C(F)(F)F)cc1-c1cccc(F)c1 [Example 149] and report it. 66.7

Find the recorded responders at 100 mg/kg belonging to CNC(=O)Cc1cc(F)ccc1-c1ccccc1 [Example 45] and report it. 100

Find the recorded responders at 100 mg/kg belonging to NC(=O)Cc1ccc(F)cc1-c1ccccc1 [Example 39, 2-(5-fluorobiphenyl-2-yl)acetamide] and report it. 100

Find the recorded responders at 100 mg/kg belonging to NC(=O)C(F)(F)c1ccccc1-c1cccc(Cl)c1 [Example 171] and report it. 100

----------
Please go through the items and note down their responders at 50 mg/kg.
- Tested on: subcutaneously pentetrazol-injected model (scPTZ)
- procedure.text: Subcutaneously pentetrazol-injected model (scPTZ) test
- Type: in vivo, mice
- applied.conditions: Mus musculus, po, 1 h, 50 mg/kg oral, Slc: ddY male mice, 3 per group, pentetrazol 85 mg/kg s.c. after 1 hour, observed 30 minutes for clonic convulsion; read-out: scPTZ (positive number/tested number) (converted)
Your answer is read as %, so omit the unit and give the number.

Find the recorded responders at 50 mg/kg belonging to CNC(=O)Cc1ccccc1-c1cccc(C)c1 and report it. 33.3

Find the recorded responders at 50 mg/kg belonging to NC(=O)Cc1ccccc1-c1ccc(C(F)(F)F)cc1Cl and report it. 33.3

Find the recorded responders at 50 mg/kg belonging to CNC(=O)C(C)c1ccccc1-c1ccccc1F (stereo not drawn) and report it. 0

Find the recorded responders at 50 mg/kg belonging to NC(=O)C(O)c1ccccc1-c1ccccc1 (stereo not drawn) [Example 59, 2-(Biphenyl-2-yl)-2-hydroxyacetamide] and report it. 0

Find the recorded responders at 50 mg/kg belonging to NC(=O)C(O)c1ccccc1-c1cc(Cl)cc(Cl)c1 (stereo not drawn) and report it. 66.7

Find the recorded responders at 50 mg/kg belonging to NC(=O)C(F)(F)c1ccccc1-c1cccc(Cl)c1 and report it. 33.3

Find the recorded responders at 50 mg/kg belonging to NC(=O)C(O)c1cc(F)ccc1-c1cc(Cl)cc(Cl)c1 (stereo not drawn) and report it. 33.3

Find the recorded responders at 50 mg/kg belonging to CNC(=O)C1(c2ccccc2-c2cccc(F)c2)CC1 and report it. 33.3

Find the recorded responders at 50 mg/kg belonging to CN(C)C(=O)Cc1cc(Cl)ccc1-c1ccccc1F and report it. 0

Find the recorded responders at 50 mg/kg belonging to NC(=O)Cc1cc(Cl)ccc1-c1ccc(C(F)(F)F)cc1 and report it. 100

Find the recorded responders at 50 mg/kg belonging to COC(C(N)=O)c1ccccc1-c1ccccc1F (stereo not drawn) and report it. 33.3

Find the recorded responders at 50 mg/kg belonging to NC(=O)Cc1ccc([N+](=O)[O-])cc1-c1ccccc1 and report it. 33.3

Find the recorded responders at 50 mg/kg belonging to NC(=O)Cc1ccccc1-c1ccccc1Cl [Example 16, 2-(2′-chlorobiphenyl-2-yl)acetamide] and report it. 66.7

Find the recorded responders at 50 mg/kg belonging to COC(C(=O)N(C)C)c1ccccc1-c1ccc(F)cc1 (stereo not drawn) and report it. 33.3

Find the recorded responders at 50 mg/kg belonging to CNC(=O)Cc1ccc(Cl)cc1-c1ccccc1 and report it. 0
